Experimental System: Recombinant human KIF18A (1-467His-tagged) protein (Homo sapiens, UniProt Q8NI77)
Construct: Recombinant human KIF18A (1-467His-tagged) protein; His
Sequence (Q8NI77 1-467): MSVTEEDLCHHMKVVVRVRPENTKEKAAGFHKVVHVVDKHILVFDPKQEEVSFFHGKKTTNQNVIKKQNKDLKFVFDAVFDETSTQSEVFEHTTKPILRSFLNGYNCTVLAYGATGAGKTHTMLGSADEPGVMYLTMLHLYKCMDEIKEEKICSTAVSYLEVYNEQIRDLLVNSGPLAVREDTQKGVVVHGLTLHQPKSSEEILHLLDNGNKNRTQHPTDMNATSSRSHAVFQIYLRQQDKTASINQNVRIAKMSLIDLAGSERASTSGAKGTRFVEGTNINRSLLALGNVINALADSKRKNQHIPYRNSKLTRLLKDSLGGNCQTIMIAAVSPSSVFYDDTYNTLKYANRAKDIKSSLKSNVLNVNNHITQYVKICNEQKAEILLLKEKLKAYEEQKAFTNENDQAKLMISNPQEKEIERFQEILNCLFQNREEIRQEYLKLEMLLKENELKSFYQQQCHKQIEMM
Sequence (P02550 whole entry partner): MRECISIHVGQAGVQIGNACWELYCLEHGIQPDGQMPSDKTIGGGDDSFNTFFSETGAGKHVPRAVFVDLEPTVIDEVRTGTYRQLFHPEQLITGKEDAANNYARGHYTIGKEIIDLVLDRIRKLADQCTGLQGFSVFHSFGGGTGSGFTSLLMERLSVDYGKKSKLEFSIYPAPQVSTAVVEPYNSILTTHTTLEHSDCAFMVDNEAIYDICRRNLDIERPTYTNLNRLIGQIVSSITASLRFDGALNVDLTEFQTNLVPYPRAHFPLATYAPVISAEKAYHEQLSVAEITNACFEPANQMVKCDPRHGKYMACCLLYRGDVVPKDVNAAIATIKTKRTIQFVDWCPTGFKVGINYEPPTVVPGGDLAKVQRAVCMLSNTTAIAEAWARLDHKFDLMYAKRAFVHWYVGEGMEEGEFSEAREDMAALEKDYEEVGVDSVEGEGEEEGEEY
Sequence (P02554 whole entry partner): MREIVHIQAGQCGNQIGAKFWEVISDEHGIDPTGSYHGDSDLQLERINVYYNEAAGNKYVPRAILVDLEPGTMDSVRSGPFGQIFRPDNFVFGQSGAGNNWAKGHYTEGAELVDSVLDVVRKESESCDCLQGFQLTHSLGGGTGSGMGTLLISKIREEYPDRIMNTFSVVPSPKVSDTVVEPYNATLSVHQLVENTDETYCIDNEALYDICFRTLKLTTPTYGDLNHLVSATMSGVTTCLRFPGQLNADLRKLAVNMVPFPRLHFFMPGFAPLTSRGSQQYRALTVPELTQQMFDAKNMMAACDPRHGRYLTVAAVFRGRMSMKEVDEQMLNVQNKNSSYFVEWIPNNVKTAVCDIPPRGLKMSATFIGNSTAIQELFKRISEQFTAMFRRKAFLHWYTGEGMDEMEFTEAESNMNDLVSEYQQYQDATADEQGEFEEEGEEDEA
Assay: KIF18A enzyme assay (microtubule-stimulated ATPase activity, ADP-Glo)
Experimental Context: 30 nM KIF18A, 75 μM ATP, 30 μg/mL pig microtubules; read-out: Inhibitory activity against KIF18A IC50
Readings of IC50 for the listed compounds

Study these solved cases before continuing.
[
  {
    "Compound Structure": "O=C(Nc1ccc([N+](=O)[O-])c(N2CCC(F)CC2)n1)c1ccc(S(=O)(=O)NCCO)cc1N1CCC2(CC1)CC2",
    "Experimental System": "Recombinant human KIF18A (1-467His-tagged) protein (Homo sapiens, UniProt Q8NI77)",
    "IC50": "≤ 100 nM"
  },
  {
    "Compound Structure": "O=C(Nc1ccc(OCF)c(OCCC(F)(F)F)n1)c1ccc(S(=O)(=O)NCCO)cc1N1CCC2(CC1)CC2",
    "Experimental System": "Recombinant human KIF18A (1-467His-tagged) protein (Homo sapiens, UniProt Q8NI77)",
    "IC50": "≤ 100 nM"
  },
  {
    "Compound Structure": "COc1ccc(C(=O)Nc2cnc(S(=O)(=O)NCCO)cc2N2CCC3(CC2)CC3)nc1N1CCO[C@H](C)C1",
    "Experimental System": "Recombinant human KIF18A (1-467His-tagged) protein (Homo sapiens, UniProt Q8NI77)",
    "IC50": "≤ 100 nM"
  }
]

Input line: Please look at "COc1ccc(NC(=O)c2cnc(NS(=O)(=O)CCO)cc2N2CCC3(CC2)CC3)nc1N1CCO[C@H](C)C1" and tell me its recorded IC50 on Recombinant human KIF18A (1-467His-tagged) protein (Homo sapiens, UniProt Q8NI77).
Output line: ≤ 100 nM

Input line: Please look at "O=C(Nc1ccc([N+](=O)[O-])c(OCCC(F)(F)F)n1)c1cnc(S(=O)(=O)NCCO)cc1N1CCC2(CC1)CC2" and tell me its recorded IC50 on Recombinant human KIF18A (1-467His-tagged) protein (Homo sapiens, UniProt Q8NI77).
Output line: ≤ 100 nM

Input line: Please look at "O=C(Nc1cnc(S(=O)(=O)NCCO)cc1N1CCC2(CC1)CC2)c1ccc([N+](=O)[O-])c(OCCC(F)(F)F)n1" and tell me its recorded IC50 on Recombinant human KIF18A (1-467His-tagged) protein (Homo sapiens, UniProt Q8NI77).
Output line: 100 to 500 nM

Input line: Please look at "O=C(Nc1cnc(NS(=O)(=O)CCO)cc1N1CCC2(CC1)CC2)c1ccc([N+](=O)[O-])c(N2CCC3(CC3)C2)n1" and tell me its recorded IC50 on Recombinant human KIF18A (1-467His-tagged) protein (Homo sapiens, UniProt Q8NI77).
Output line: ≤ 100 nM

====

Experimental System: Recombinant human KIF18A (1-467His-tagged) protein (Homo sapiens, UniProt Q8NI77)
Construct: Recombinant human KIF18A (1-467His-tagged) protein; His
Assay: KIF18A enzyme assay (microtubule-stimulated ATPase activity, ADP-Glo)
Experimental Context: 30 nM KIF18A, 75 μM ATP, 30 μg/mL pig microtubules; read-out: Inhibitory activity against KIF18A IC50
pIC50: −log10 of the molar value.
Reported Property: pIC50

Study these solved cases before continuing.
[
  {
    "Compound": "CSc1ccc(NC(=O)c2cnc(NS(=O)(=O)CCO)cc2N2CCC3(CC2)CC3)nc1N1CCC(C)(F)C1 (stereo not shown)",
    "Experimental System": "Recombinant human KIF18A (1-467His-tagged) protein (Homo sapiens, UniProt Q8NI77)",
    "pIC50": "≥ 7.00"
  },
  {
    "Compound": "CC1(F)CCN(c2cc(NC(=O)c3ccc(S(=O)(=O)NCCO)cc3N3CCC4(CC3)CC4)ccc2[N+](=O)[O-])C1 (stereo not shown)",
    "Experimental System": "Recombinant human KIF18A (1-467His-tagged) protein (Homo sapiens, UniProt Q8NI77)",
    "pIC50": "≥ 7.00"
  },
  {
    "Compound": "O=C(Nc1ccc(S(=O)(=O)NCCO)cc1N1CCC2(CC1)CC2)c1ccc([N+](=O)[O-])c(N2CC(F)(F)C2)c1",
    "Experimental System": "Recombinant human KIF18A (1-467His-tagged) protein (Homo sapiens, UniProt Q8NI77)",
    "pIC50": "6.30 to 7.00"
  }
]

Input line: Return pIC50 for the following compound: "CSc1ccc(NC(=O)c2ccc(NS(=O)(=O)[C@H](C)CO)cc2N2CCC3(CC2)CC3)nc1N1CCC(F)(F)CC1"
Output line: ≥ 7.00

Values compiled from patent US20260158017A1.
